Give Cyno T-cell Binding 0.2 uM (MFI) for every item shown.
# SYSTEM_NAME: T1, cynomolgus monkey CD8A on primary cynomolgus monkey CD8+ T cells (cynomolgus monkey, UniProt P01732 23-235 (human entry))
# T1 construct: also called Cyno CD8alpha
# ASSAY_METHOD_TEXT: flow cytometry, cyno CD8+ T cells, 0.2 uM FN3

Worked cases, answers included:
P283AR9P1362_D3 (designed binder, FN3 domain) LPAPKNLVVSRVTEDSARLSWPVESNAFDSFLIQYQESEKVGEAIVLTVPGSERSYDLTGLKPGTEYTVSIYGVDVEYDQHGRPRWSNPLSAIFTT; 6050 MFI
P282BR9P1357_D12 (designed binder, FN3 domain) LPAPKNLVVSRVTEDSARLSWGQYITAFSFDSFLIQYQESEKVGEAIVLTVPGSERSYDLTGLKPGTEYTVSIYGVDVAWFQGKPTWSNPLSAIFTT; 7360 MFI
P282FR9P1361_F3 (designed binder, FN3 domain) LPAPKNLVVSRVTEDSARLSWTAPDAAFDSFDIWYAEYGYPGEAIVLTVPGSERSYDLTGLKPGTEYDVAISGAKGGPRSYPLSAIFTT; 513 MFI

Request the reported Cyno T-cell Binding 0.2 uM (MFI) associated with P283AR9P1362_E9 (designed binder, FN3 domain) LPAPKNLVVSRVTEDSARLSWVPSPWGFDSFLIQYQESEKVGEAIVLTVPGSERSYDLTGLKPGTEYTVSIYGVDVKYDIDSRPISSNPLSAIFTT
2840 MFI
